Origin of measurements: paper PMC6895048

Target: IDO1 (Homo sapiens, UniProt P14902)
Sequence (P14902 whole entry): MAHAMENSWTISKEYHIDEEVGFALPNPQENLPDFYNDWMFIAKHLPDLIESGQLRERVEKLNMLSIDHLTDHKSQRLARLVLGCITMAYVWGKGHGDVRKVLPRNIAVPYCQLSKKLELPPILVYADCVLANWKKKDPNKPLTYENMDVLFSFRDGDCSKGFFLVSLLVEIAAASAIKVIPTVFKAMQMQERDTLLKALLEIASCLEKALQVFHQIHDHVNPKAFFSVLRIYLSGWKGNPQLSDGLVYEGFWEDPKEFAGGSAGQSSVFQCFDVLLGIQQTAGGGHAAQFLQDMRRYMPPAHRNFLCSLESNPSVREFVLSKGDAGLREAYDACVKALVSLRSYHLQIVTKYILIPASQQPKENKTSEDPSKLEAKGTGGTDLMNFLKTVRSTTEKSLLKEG
Test: Circular dichroism analysis of IDO1 enzyme
Set-up: made in house; host or cells: Escherichia coli M15 (pQE30 vector with pREP4 plasmid)
Details: compound 0.5 µM
propertyMeasured: % of Secondary structural elements, Helix (%)
Numbers only; they are read as %.

Task: Record NS(=O)(=O)NCCNC(=O)c1n[nH]nc1-c1ccc(F)c(F)c1 : what is its % of Secondary structural elements, Helix with IDO1 (Homo sapiens, UniProt P14902)?
Result: 30.6

---

Molecular target: purified human TDO enzyme (Homo sapiens)
Construct: 6xHis (N); made in house; host or cells: Escherichia coli BL21 (DE3) (pET 28a vector)
Sequence (P48775 whole entry): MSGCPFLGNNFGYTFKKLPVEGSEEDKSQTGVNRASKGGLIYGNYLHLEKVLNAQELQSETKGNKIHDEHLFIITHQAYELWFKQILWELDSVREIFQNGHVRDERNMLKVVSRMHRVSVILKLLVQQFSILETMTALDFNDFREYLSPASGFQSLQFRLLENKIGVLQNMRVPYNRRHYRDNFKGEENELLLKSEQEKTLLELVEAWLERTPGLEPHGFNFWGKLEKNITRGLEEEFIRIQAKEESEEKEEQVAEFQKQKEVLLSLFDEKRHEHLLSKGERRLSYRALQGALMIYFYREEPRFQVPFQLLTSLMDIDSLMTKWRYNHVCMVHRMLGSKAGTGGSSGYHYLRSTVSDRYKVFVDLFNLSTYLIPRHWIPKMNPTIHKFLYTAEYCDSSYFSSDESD
Experiment: TDO inhibition assay by the spectrometric method
Format: biochemical
Conditions: spectrophotometric; 160 nM
Overview of recorded % of Enzyme inhibition (TDO) for various compounds
Numbers only; they are read as %.

CCOC(=O)c1n[nH]nc1-c1ccc(Cl)c(Cl)c1 | 12
NC(=O)c1n[nH]nc1-c1ccc(Cl)cc1 | 8

Please turn your attention to the following entry.
Task: Would you kindly share the measured % of Enzyme inhibition (TDO) for CCOC(=O)c1n[nH]nc1-c1ccc(F)c(F)c1 ?
Result: 9

---

Target: purified human TDO enzyme (Homo sapiens)
Construct: 6xHis (N); made in house; host or cells: Escherichia coli BL21 (DE3) (pET 28a vector)
Assay: TDO inhibition assay by the spectrometric method
Format: biochemical
Settings: spectrophotometric; 32 nM
propertyMeasured: inhibition at 0.032 µM (%)
Numbers only; they are read as %.

NC(=O)c1n[nH]nc1-c1ccccc1 | 5
NS(=O)(=O)NCCNC(=O)c1n[nH]nc1-c1ccc(Cl)c(Cl)c1 | 3
NS(=O)(=O)NCCNC(=O)c1n[nH]nc1-c1ccc(F)c(F)c1 | 3
c1ccc(-c2nn[nH]c2-c2ccccc2)cc1 | 8

Please turn your attention to the following entry.
Task: Would you kindly share the measured inhibition at 0.032 µM for CCOC(=O)c1n[nH]nc1-c1ccccc1 ?
Result: 8

---

Overview of recorded % of Secondary structural elements, Turn for various compounds
Molecular target: IDO1 (Homo sapiens)
Assay: Circular dichroism analysis of IDO1 enzyme
Parameters: made in house; host or cells: Escherichia coli M15 (pQE30 vector with pREP4 plasmid)
Details: compound 0.5 µM
Numbers only; they are read as %.

Look over these answered cases.
O=C(N/C(Cc1ccc(O)cc1)=N\O)c1n[nH]nc1-c1ccc(F)c(F)c1 | 33.9
CCOC(=O)c1n[nH]nc1-c1ccc(F)c(F)c1 | 35.2
NS(=O)(=O)NCCNC(=O)c1n[nH]nc1-c1ccc(F)c(F)c1 | 38.2

Please turn your attention to the following entry.
Task: Would you kindly share the measured % of Secondary structural elements, Turn for NC(=O)c1n[nH]nc1-c1ccc(F)c(F)c1 ?
Result: 33.8

---

Biological target: IDO1 (Homo sapiens, UniProt P14902)
Assay: Kynurenine assay by HPLC analysis, IDO1
Assay type: biochemical
Set-up: made in house; host or cells: Escherichia coli M15 (pQE30 vector with pREP4 plasmid)
Conditions: HPLC; 4 µM
propertyMeasured: % Of inhibition for IDO1 enzyme (%)
Numbers only; they are read as %.

Look over these answered cases.
O=C(O)c1n[nH]nc1-c1ccc(F)c(F)c1 | 30
CCOC(=O)c1n[nH]nc1-c1ccc(F)c(F)c1 | 60
NC(=O)c1n[nH]nc1-c1ccc(Cl)c(Cl)c1 | 88
O=C(N/C(Cc1ccc(O)cc1)=N\O)c1n[nH]nc1-c1ccc(F)c(F)c1 | 68
CCOC(=O)c1n[nH]nc1-c1ccc(Cl)c(Cl)c1 | 65

Please turn your attention to the following entry.
Task: Would you kindly share the measured % Of inhibition for IDO1 enzyme for NC(=O)c1n[nH]nc1-c1ccc(F)c(F)c1 ?
Result: 76
